For each record, write down the corresponding IC50.
# Assay Info: Displacement of Biocillin FL from Streptococcus pneumoniae 3676 PBP1B
Just the number in µg/mL, nothing appended.

IC50 reported for this compound CC1(C)S[C@@H]2[C@H](NC(=O)Cc3ccccc3)C(=O)N2[C@H]1C(=O)O [PENICILLIN G] : 0.021

IC50 reported for this compound C[C@@H](O)[C@H]1C(=O)N2C(C(=O)O)=C(SCCNC=N)C[C@H]12 [IMIPENEM ANHYDROUS] : 0.182

IC50 reported for this compound CC1(C)S[C@@H]2[C@H](NC(=O)[C@H](N)c3ccc(O)cc3)C(=O)N2[C@H]1C(=O)O [AMOXICILLIN] : 0.116

IC50 reported for this compound C[C@@H](O)[C@H]1C(=O)N2C(C(=O)O)=C([C@H]3CCCO3)S[C@H]12 [FAROPENEM] : 0.005

IC50 reported for this compound CO/N=C(\C(=O)N[C@@H]1C(=O)N2C(C(=O)O)=C(COC(N)=O)CS[C@H]12)c1ccco1 [CEFUROXIME] : 0.038

====

# Assay Info: Displacement of Biocillin FL from Streptococcus pneumoniae 3413 PBP2A
Threshold 0.007 µg/mL. IC50 below it: 1. IC50 at it or above: 0.

Strictly below 0.007 µg/mL in IC50? CC1(C)S[C@@H]2[C@H](NC(=O)[C@H](N)c3ccc(O)cc3)C(=O)N2[C@H]1C(=O)O [AMOXICILLIN] 0

Strictly below 0.007 µg/mL in IC50? CO/N=C(\C(=O)N[C@@H]1C(=O)N2C(C(=O)O)=C(COC(N)=O)CS[C@H]12)c1ccco1 [CEFUROXIME] 1

Strictly below 0.007 µg/mL in IC50? CC1(C)S[C@@H]2[C@H](NC(=O)Cc3ccccc3)C(=O)N2[C@H]1C(=O)O [PENICILLIN G] 0

Strictly below 0.007 µg/mL in IC50? C[C@@H](O)[C@H]1C(=O)N2C(C(=O)O)=C(SCCNC=N)C[C@H]12 [IMIPENEM ANHYDROUS] 0

====

# Tested System: Penicillin-binding protein 2B (Streptococcus pneumoniae serotype 4 (strain ATCC BAA-334 / TIGR4), UniProt P0A3M5)
# Sequence (P0A3M5 whole entry): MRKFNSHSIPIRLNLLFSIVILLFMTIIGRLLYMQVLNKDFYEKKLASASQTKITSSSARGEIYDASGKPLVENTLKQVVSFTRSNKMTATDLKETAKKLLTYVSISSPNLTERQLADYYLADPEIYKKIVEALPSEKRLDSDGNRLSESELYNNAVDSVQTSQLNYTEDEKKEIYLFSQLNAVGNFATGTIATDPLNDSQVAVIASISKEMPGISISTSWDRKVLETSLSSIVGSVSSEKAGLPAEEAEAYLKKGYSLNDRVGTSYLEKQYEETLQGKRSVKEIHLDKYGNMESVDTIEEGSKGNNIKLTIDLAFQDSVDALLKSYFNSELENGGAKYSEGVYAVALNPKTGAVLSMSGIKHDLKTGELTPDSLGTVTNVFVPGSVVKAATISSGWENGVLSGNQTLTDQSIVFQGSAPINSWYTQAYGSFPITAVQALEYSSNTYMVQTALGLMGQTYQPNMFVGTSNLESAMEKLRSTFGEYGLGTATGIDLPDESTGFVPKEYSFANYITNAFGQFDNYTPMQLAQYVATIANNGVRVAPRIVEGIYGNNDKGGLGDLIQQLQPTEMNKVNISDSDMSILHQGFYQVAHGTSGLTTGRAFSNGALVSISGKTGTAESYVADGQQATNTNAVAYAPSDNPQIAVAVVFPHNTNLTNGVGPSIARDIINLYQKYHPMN
# Assay Info: Displacement of Biocillin FL from Streptococcus pneumoniae 3413 PBP2B
Readout Kind: IC50 (nM)
Just the number in nM, nothing appended.

IC50 reported for this compound CC1(C)S[C@@H]2[C@H](NC(=O)[C@H](N)c3ccc(O)cc3)C(=O)N2[C@H]1C(=O)O : 452

IC50 reported for this compound C[C@@H](O)[C@H]1C(=O)N2C(C(=O)O)=C(SCCNC=N)C[C@H]12 [IMIPENEM ANHYDROUS] : 2890

IC50 reported for this compound CO/N=C(\C(=O)N[C@@H]1C(=O)N2C(C(=O)O)=C(COC(N)=O)CS[C@H]12)c1ccco1 : 1.18

IC50 reported for this compound C[C@@H](O)[C@H]1C(=O)N2C(C(=O)O)=C([C@H]3CCCO3)S[C@H]12 : 498

IC50 reported for this compound CC1(C)S[C@@H]2[C@H](NC(=O)Cc3ccccc3)C(=O)N2[C@H]1C(=O)O : 532

====

For each record, write down the corresponding MIC.
# Test system: Streptococcus pneumoniae
# Assay Info: Antimicrobial activity against penicillin-resistant Streptococcus pneumoniae 2527 by CLSI method
# Assay type: functional

MIC reported for this compound C[C@@H](O)[C@H]1C(=O)N2C(C(=O)O)=C(SCCNC=N)C[C@H]12 [IMIPENEM ANHYDROUS] : 0.25 µg/mL

MIC reported for this compound CC1(C)S[C@@H]2[C@H](NC(=O)[C@H](N)c3ccc(O)cc3)C(=O)N2[C@H]1C(=O)O : 1 µg/mL

MIC reported for this compound CC1(C)S[C@@H]2[C@H](NC(=O)Cc3ccccc3)C(=O)N2[C@H]1C(=O)O : 2 µg/mL

MIC reported for this compound CO/N=C(\C(=O)N[C@@H]1C(=O)N2C(C(=O)O)=C(COC(N)=O)CS[C@H]12)c1ccco1 : 8 µg/mL

MIC reported for this compound C[C@@H](O)[C@H]1C(=O)N2C(C(=O)O)=C([C@H]3CCCO3)S[C@H]12 : 1 µg/mL
